Where do the numbers come from? From the RNAGym collection of RNA variant scans (doi:10.1073/pnas.2313332121).

# maps each entry to its polymerase ribozyme fitness (log ratio)
B1: TPR t1 (parent)
chain: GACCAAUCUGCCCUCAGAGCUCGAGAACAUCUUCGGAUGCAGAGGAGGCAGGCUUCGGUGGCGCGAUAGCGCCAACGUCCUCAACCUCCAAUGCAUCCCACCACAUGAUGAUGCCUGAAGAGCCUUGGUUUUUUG

variants of: B1; assay: polymerase ribozyme fitness, log enrichment relative to wild type (log ratio); higher = more active; in vitro selection for triplet polymerase activity

Answered cases to consult:
Input GACCAAUCUGCCCUCAGAGCUCGAGAACAUCUUCGGAUGCAGAGGAGGCAGGCUUCGGUGGCGCGAUAGCUCCAACGUCCUCAACCUCCAAUGCAUCCCACCACAUGAUGAUGCCUGAAGAGCCUUGGUUUAUUG [G71U U132A] . Output polymerase ribozyme fitness (log ratio): 0.382

Input GUCCAAUCUGCCCUCAGAGCUCGAGAACAUCUUCGGAUGCAGAGGAGGCAGGCUUCGGUGGCGCGAUAGCUCCCACGUCCUCAACCUCCAAUGCAUCCCACCACAUGAUGAUGCCUGAAGAGCCUUGGUUUUUUG [A2U G71U A74C] . Output polymerase ribozyme fitness (log ratio): -4.54

Input GACCAAUCUGCCCUCAGAGCUCGAGAACAUCUUCGGGUGCAGACGAGGCAGGCUUCGGUGGCGCGAUAGCGCCAACGUCCUCAACCUCCAAUGCAUCCCACCACAUGAUGAUGCCUGAAGAGCCUUGGUUUUUUG [A37G G44C] . Output polymerase ribozyme fitness (log ratio): -0.927

Input GACUAAUCUGCCCUCAGAGCUCGAGAACAUCUUCGGAUGCAGAGGAGGCGGGCUUCGGUGGCGCGAUAGCGCCAACGUCCUCAACCUCCAAUACAUCCCACCACAUGAUGAUGCCUUUAGAGCCUUGGUUUUUUG [C4U A50G G93A G117U A118U] . Output polymerase ribozyme fitness (log ratio): -4.55

Input GACCAAUCUGCCCUCAGAGCUCGAGAACAUCUUCGGAUGCAGAGGAGGCAGGCUUCGGUUGCGCGAUAGCGCCAACGUCAUCAACCUCCAAUGCAUCCCACCACAAGAUGAUGCCUGAAGAGCCUUGGUUUUUUG [G60U C80A U106A] . Output polymerase ribozyme fitness (log ratio): -3.14

Others:
Input GACCAAUCUACCCUCAGAGCUCGAGAACAUCUUCGGAUGCAGAGGAGGCAGGCUUGGGUGGCGCGAUAGCGCCAACGUCCUCAACCUCCAAUGCAUCCCACCACAUGAUGAUGCCUAAAGAGCCUUGGUUUUUUG [G10A C56G G117A] . Output polymerase ribozyme fitness (log ratio): -3.95

Input GACCAAUCUGCCCUCAGAGCUCGAGAACAUCUUCGGAUGUAGAGGAGGCAGGCUUAGGUGGCGCGAUAGCGCCCACGUCCUCAACCUCCAAUGCAUCCCACCACAUGAUGAUGCCUGAAGAGCCUUGGUCUUUUG [C40U C56A A74C U130C] . Output polymerase ribozyme fitness (log ratio): -1.15

Input GACCAAUCUGCCCUUAGAGCUCGAGAACAUCUUCGGAUGCAGAGGAGGCAGGCUUCGGUGGCGCGAUAGCGCCAACGUCCUCAACCUCCAAUGCAUCCCAACACAUGAUGAUGCCUGAAGAGCCUUGGUUUUUUG [C15U C101A] . Output polymerase ribozyme fitness (log ratio): -2.35

Input GACCAAUCUGCCCUCAGAGCUCGAGAACAUCUUCGGAUGCAGAGGAGGCAGGCUUCGGUGGCGCGAUAGCGCAAACGUCCUCAACCUCCAAUGGAUCCCACCACAUGAUGAUGCCUGAAGAGCCUUGGUUUUUUG [C73A C94G] . Output polymerase ribozyme fitness (log ratio): -0.66

Input GAUAAAUCUGCCCUCAGAGCUCGAGAACAUCUUCGGAUGCAGAGGAGGCAGGGUUCGGUGGCGCGAUAGCGCCAACGUCCUCAACCUUCCAUGCAUCCCACCACAUGAUGAUGCCUGAAGAGACUUGGUCUUUUG [C3U C4A C53G C88U A90C C123A U130C] . Output polymerase ribozyme fitness (log ratio): -0.356

Input GACCAAUCUGCCCUCAGAGCUCGAGAACAUCUUCGGAUGCAGAGGAGGCAGGCUUCGGUGGCACGAUAGCACCAACGUCCUCAACCUCCAAUGCAUCCCACCACAUGAUGAUGCCUGAAGAGCCUUGGUUUUUUG [G63A G71A] . Output polymerase ribozyme fitness (log ratio): -2.59

Input GACCAAUCUGACCUCAGAGCUCGAGAACAUCUUCGGAUGCAGAGAAGGCAGGCUUCGGUGACGCGAUAGCGCCAACGUCCUCAACCUCCAAUGCAUCCCACCACAUGAUGAUGCCUGAAGAGCCUUGGUUUUUUG [C11A G45A G61A] . Output polymerase ribozyme fitness (log ratio): -1.68

Input GACUAAUCUGCCCUCAGAGCUCGAGAACAUCUUCGGAUGCAGAGGAGGCAGGCUUCGGUUGCGCGAUAGCGCCAACGUCCUCAACCUCCAAUGCAUCCCACCACAUGAUGAUGCCUGAAGAGCCUUGGUUUUUUG [C4U G60U] . Output polymerase ribozyme fitness (log ratio): -0.43

Input GACCAAUCUGCCCUCAGAGCUGGAGAACAUCUUCGGAUGCACAGGAGGCAGGCUUCGGUGGCGCGAUAGCGCCAACGUCCUCAACCUCCAAUGCAUCCCACCACAUGAUGAUGCCUGAAGAGCCUUGGUUUUUUG [C22G G42C] . Output polymerase ribozyme fitness (log ratio): -3.87

Input GACCAAGCUGCCCUCAGAGCUCGAGAACAUCUUCGGAUGCAGAGGAGGCAGGCUUCGGUGGCGCGAUAGCGCCAACGUCUUCAACCUCCAAUGCAUCCCACCACAUGAUGAUGCCUGAAGAGCCUUGGUUUUUUG [U7G C80U] . Output polymerase ribozyme fitness (log ratio): 0.145

Input GACCAAUCUGCCCUCAGAGCUCGAGAACAUCUUCGGAUGCGGAGAAGGCCGGCUUCGGUGGCGCGAUAGCGCCAACGUCCUCAACCUCCAAUGCAUCCCACCACAUGAUGAUGCCUGAAGAGUCUUGGUUUUUUG [A41G G45A A50C C123U] . Output polymerase ribozyme fitness (log ratio): -0.694

Input GACCAAUCUGCCCUCAGAGCUCGAGAACAUCUUCGGAUGCAGAGGAGGGAGGCUUCGGUUGCGCGAUAGCGCCAACGUCCUCAACCUCCAAUGCAUCCCACCACAUGAUAAUGCCUGAAGAGCCUUGGUUUUUUG [C49G G60U G110A] . Output polymerase ribozyme fitness (log ratio): -1.76

Input GACCAAUCUGCCCUCAGAGCUCGAGAACAUCUUCGGAUGCAGAGGAGGCAGGCUUCGGUGUCGCGAUAGCGCCAACGUCCUCAACCUCCAAUUCAUCCCACCACAUGAUGAUGCCUGAAGAGCCUUGGUAUUUUG [G61U G93U U130A] . Output polymerase ribozyme fitness (log ratio): -1.63

Input GACCAAUCUGCCCUCAGAGCUCGAGAACAUCUUCGGAUGCAGAGGAGGAAGGCUUUGGUGGCGCGAUAGCGCCAACGUCCUCAACCUCCAAUGCAUCCCACCACAUGAUGAUGCCUGAAGAGCCUUGGUUUUUUG [C49A C56U] . Output polymerase ribozyme fitness (log ratio): 0.0901

Input GACCAAUCUGCCCUCAGAGCUCGAGAAGAUCUUCGGAUGCAGAGGAGGCAGGCUUCGGUGGCGCGAUAGCGCCAACGUCCUCGACCUCCAAUGCAUCCCACCACAUGAUGAUGCCUGAAGAGCCUUGGUCUUUUG [C28G A83G U130C] . Output polymerase ribozyme fitness (log ratio): -4.34

Input GACCAAUAUGCCCUCAGAGCUCGAGAACAUCUUCGGAUGCAGAGGAGGAAGGCUUCGGUGGCGUGAUAGCGCCAACGUCCUCAACUUCCAAUUUAUCCCACCACAUGAUGAUGCCUGAAGAGACUUGGUUUUUUG [C8A C49A C64U C86U G93U C94U C123A] . Output polymerase ribozyme fitness (log ratio): -0.145

Input GACCAAUCUGCCCUCAGAGCUCGAGAACAUCUUCGGAUGCAGAGGAGGCAGUCUUCGGUAGCGCGAUAGCGCCAACGUCCUCAACCUCCAAUGCAUCCCACCAUAUGAUGAUGCGUGAAGCGCCUUGGUUUUUUG [G52U G60A C104U C115G A121C] . Output polymerase ribozyme fitness (log ratio): -4.03
